meta.source: patent US20030068675

systemTested: ZFP SBS#731 (synthetic)
Sequence (chain, as listed by the source): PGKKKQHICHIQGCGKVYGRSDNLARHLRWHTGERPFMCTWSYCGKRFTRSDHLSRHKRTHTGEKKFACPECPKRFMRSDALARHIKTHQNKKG
assayDetails: EMSA
measurementSetup: tags: MBP fusion
parameterMeasured: Kd (nM)
Numbers only, in nM.

Task item: Sample GTGGGGGAGA (dsDNA) DNA 1: GTGGGGGAGA DNA 2: TCTCCCCCAC — what was its Kd?
Reply: 12
